Source of measurements: patent US9029384B2

biological target: PI3Kδ (Homo sapiens); construct: made in house; assay: Enzymatic activity of PI3K isoforms, TR-FRET assay (PIP3 formation); assay type: biochemical; conditions: PI3Kδ; TR-FRET, 2×Km ATP, 10 μM PIP2; read-out: IC50
Below: a set of entries, each annotated with reported IC50.

Would you please look over these solved cases?
1. CCC(Nc1nc(N)nc(N)c1C#N)c1nc2ccc(F)cc2c(=O)n1-c1cc(F)cc(F)c1 (single isomer, unassigned) [Compound 26a]	10 to 50 nM
2. C[C@H](Nc1nc(N)nc(N)c1C#N)c1nc2c(C#N)cc(F)cc2c(=O)n1-c1cccc(F)c1 [Compound 154a]	1 to 10 nM

The record that follows has no IC50 shown yet.
Recorded IC50 for CC(Nc1nc(N)nc(N)c1C#N)c1nc2c(F)ccc(F)c2c(=O)n1-c1cccc(C#N)c1 (single isomer, unassigned) [Compound 149a] on PI3Kδ (Homo sapiens) was 10 to 50 nM

====

This section presents molecules with their documented half-life at 2 μM values.
test: Hepatocyte stability, 1% final DMSO, 2 μM substrate (t1/2^a); format: in vitro ADME; details: human, cryopreserved hepatocytes, TA with 1% final DMSO, 2 μM substrate, samples at 0, 1, 2, 4 hours; read-out: human hepatocyte t½^a

Recorded half-life at 2 μM, per entry:
1) CC(Nc1nc(N)nc(N)c1C#N)c1nc2cccc(F)c2c(=O)n1-c1cccc(C(F)(F)F)c1 (single isomer, unassigned) [Compound 40a]	6 to 10 h
2) CC(Nc1nc(N)nc(N)c1C#N)c1nc2cccc(C(F)F)c2c(=O)n1-c1cc(F)cc(F)c1 (single isomer, unassigned) [Compound 52a]	> 10 h

Reported half-life at 2 μM of CC(Nc1nc(N)nc(N)c1C#N)c1nc2cccc(F)c2c(=O)n1-c1cc(F)cc(Cl)c1 (single isomer, unassigned) [Compound 44a] : > 10 h

For record CCC(Nc1nc(N)nc(N)c1C#N)c1nc2cccc(Cl)c2c(=O)n1-c1cc(F)cc(C(F)F)c1 (single isomer, unassigned) [Compound 66a] the listed half-life at 2 μM is 3 to 6 h

====

molecular target: PI3Kδ (Homo sapiens, UniProt O00329); construct: made in house; experiment: Enzymatic activity of PI3K isoforms, TR-FRET assay (PIP3 formation); type: biochemical; conditions: PI3Kδ; TR-FRET, 2×Km ATP, 10 μM PIP2; read-out: IC50
Sequence (O00329 whole entry, canonical isoform): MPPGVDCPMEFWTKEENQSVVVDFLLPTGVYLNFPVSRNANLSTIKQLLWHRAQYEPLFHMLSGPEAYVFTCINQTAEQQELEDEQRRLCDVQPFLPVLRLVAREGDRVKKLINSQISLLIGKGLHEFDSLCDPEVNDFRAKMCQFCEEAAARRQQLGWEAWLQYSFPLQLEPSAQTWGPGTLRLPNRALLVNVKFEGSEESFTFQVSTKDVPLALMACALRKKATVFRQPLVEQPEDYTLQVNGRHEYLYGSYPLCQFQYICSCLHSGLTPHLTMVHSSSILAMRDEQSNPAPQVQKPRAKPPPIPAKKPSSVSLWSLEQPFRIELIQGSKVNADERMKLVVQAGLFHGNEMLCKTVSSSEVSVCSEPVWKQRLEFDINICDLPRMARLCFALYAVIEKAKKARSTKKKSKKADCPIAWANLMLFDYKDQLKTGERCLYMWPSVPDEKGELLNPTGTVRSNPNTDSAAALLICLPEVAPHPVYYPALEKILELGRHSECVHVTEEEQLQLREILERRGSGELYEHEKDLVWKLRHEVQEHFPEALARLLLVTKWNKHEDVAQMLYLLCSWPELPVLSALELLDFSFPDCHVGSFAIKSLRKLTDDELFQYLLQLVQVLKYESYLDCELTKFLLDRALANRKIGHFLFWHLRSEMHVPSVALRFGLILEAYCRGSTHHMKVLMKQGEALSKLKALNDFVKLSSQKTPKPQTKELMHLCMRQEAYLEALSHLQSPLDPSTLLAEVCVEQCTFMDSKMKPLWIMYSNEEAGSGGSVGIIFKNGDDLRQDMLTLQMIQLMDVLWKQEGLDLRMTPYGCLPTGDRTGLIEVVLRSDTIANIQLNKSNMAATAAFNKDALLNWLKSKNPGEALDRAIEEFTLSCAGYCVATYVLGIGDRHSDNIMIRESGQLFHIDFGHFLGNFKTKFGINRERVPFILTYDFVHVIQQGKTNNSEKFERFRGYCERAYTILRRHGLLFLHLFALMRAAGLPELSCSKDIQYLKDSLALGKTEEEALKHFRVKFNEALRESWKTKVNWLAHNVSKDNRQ
Sequence (P27986 whole entry partner, canonical isoform): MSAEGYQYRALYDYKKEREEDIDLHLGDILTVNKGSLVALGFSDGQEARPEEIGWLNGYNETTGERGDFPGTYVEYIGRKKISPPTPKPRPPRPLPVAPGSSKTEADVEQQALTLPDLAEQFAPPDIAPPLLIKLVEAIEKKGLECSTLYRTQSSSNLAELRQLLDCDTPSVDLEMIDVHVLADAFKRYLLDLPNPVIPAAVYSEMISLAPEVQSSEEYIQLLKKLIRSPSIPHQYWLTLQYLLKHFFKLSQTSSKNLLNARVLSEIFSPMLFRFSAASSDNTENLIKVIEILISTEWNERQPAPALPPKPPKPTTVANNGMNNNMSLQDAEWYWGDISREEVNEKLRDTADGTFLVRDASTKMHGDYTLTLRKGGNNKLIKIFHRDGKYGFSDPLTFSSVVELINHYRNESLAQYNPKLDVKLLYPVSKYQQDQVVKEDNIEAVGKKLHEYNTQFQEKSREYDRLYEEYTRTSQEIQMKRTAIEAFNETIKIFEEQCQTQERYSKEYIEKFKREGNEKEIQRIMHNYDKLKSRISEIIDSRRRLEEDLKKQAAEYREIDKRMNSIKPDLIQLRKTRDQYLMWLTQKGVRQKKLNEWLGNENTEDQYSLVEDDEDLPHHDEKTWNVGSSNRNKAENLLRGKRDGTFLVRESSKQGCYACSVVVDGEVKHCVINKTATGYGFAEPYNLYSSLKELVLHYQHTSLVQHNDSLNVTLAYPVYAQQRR
pIC50: −log10 of the molar value.
measured attribute: pIC50

Below are worked cases with known answers.
1. CCC(Nc1nc(N)nc(N)c1C#N)c1nc2c(Cl)ccc(F)c2c(=O)n1-c1cc(F)cc(F)c1 (single isomer, unassigned) [Compound 102a]	7.30 to 8.00
2. CCC(Nc1nc(N)nc(N)c1C#N)c1nc2c(F)ccc(F)c2c(=O)n1-c1ccccc1 (single isomer, unassigned) [Compound 150a]	8.00 to 9.00
3. CC(Nc1nc(N)nc(N)c1C#N)c1nc2c(Cl)ccc(Cl)c2c(=O)n1-c1cc(F)cc(F)c1 (single isomer, unassigned) [Compound 74a]	8.00 to 9.00
4. CC(C)C(Nc1nc(N)nc(N)c1C#N)c1nc2cccc(Cl)c2c(=O)n1-c1cc(F)cc(F)c1 (single isomer, unassigned) [Compound 198a]	8.00 to 9.00
5. CC(Nc1nc(N)nc(N)c1C#N)c1nc2cccc(F)c2c(=O)n1-c1cc(C(F)F)cc(C(F)F)c1 (single isomer, unassigned) [Compound 136a]	< 7.30

As a next step, examine the molecule that follows.
So, CC(Nc1nc(N)nc(N)c1C#N)c1nc2c(F)cccc2c(=O)n1-c1ccccc1 (single isomer, unassigned) [Compound 58a] ? Its pIC50 was 8.00 to 9.00

====

Assay: Hepatocyte stability, 1% final DMSO, 2 μM substrate (t1/2^a)
Format: in vitro ADME
Conditions: human, cryopreserved hepatocytes, TA with 1% final DMSO, 2 μM substrate, samples at 0, 1, 2, 4 hours; read-out: human hepatocyte t½^a
Protocol: This assay was used to evaluate the metabolic stability of test articles (TA) following incubation in cryopreserved hepatocytes by monitoring parent drug disappearance via […]. The TA with 1% final DMSO concentration was incubated with 1 million hepatocytes/ml at 2 μM substrate in duplicate. The incubation was carried out at 37° C. with 5% CO2 and saturating humidity.
Entries and their half-life at 2 μM values follow.

For orientation, consider the following solved cases.
1. CC(Nc1nc(N)nc(N)c1C#N)c1nc2c(F)ccc(Cl)c2c(=O)n1-c1cc(F)cc(F)c1 (single isomer, unassigned) [Compound 15a]	3 to 6 h
2. CC[C@H](Nc1nc(N)nc(N)c1C#N)c1nc2cccc(F)c2c(=O)n1-c1cc(F)cc(F)c1 [Compound 77a]	> 10 h
3. Cc1ccc(F)c2c(=O)n(-c3ccccc3)c(C(C)Nc3nc(N)nc(N)c3C#N)nc12 (single isomer, unassigned) [Compound 61a]	> 10 h
4. CC(Nc1nc(N)nc(N)c1Cl)c1nc2cccc(Cl)c2c(=O)n1-c1ccccc1 (single isomer, unassigned) [Compound 104a]	3 to 6 h
5. CC(Nc1nc(N)nc(N)c1C#N)c1nc2cccc(Cl)c2c(=O)n1-c1cc(F)cc(C(F)F)c1 (single isomer, unassigned) [Compound 55a]	6 to 10 h
6. C[C@H](Nc1ncnc(N)c1C#N)c1nc2cccc(Cl)c2c(=O)n1-c1cc(F)cc(F)c1 [Z, reference compound]	1 to 3 h

The reported half-life at 2 μM of the compound CCC(Nc1nc(N)nc(N)c1C#N)c1nc2cccc(C(F)F)c2c(=O)n1-c1cc(F)cc(F)c1 (single isomer, unassigned) [Compound 53a] was > 10 h

====

target: PI3Kδ (Homo sapiens); construct: made in house; experiment: Enzymatic activity of PI3K isoforms, TR-FRET assay (PIP3 formation); type: biochemical
The following compounds are shown together with reported IC50 values.

1) C[C@H](Nc1ncnc(N)c1C#N)c1nc2cccc(Cl)c2c(=O)n1-c1cc(F)cc(F)c1 [Z, reference compound]	1 to 10 nM
2) CC(Nc1nc(N)nc(N)c1Cl)c1nc2cccc(Cl)c2c(=O)n1-c1ccccc1 (single isomer, unassigned) [Compound 104a]	< 1 nM

The recorded IC50 for entry C[C@H](Nc1ncnc(N)c1C#N)c1nc2cccc(Cl)c2c(=O)n1-c1ccccc1 [Y, reference compound] equals < 1 nM

====

target: PI3Kδ (Homo sapiens); construct: made in house; test: Enzymatic activity of PI3K isoforms, TR-FRET assay (PIP3 formation); format: biochemical; conditions: PI3Kδ; TR-FRET, 2×Km ATP, 10 μM PIP2; read-out: IC50
pIC50: −log10 of the molar value.
Measured pIC50 values are reported for all entries that follow.

// known answers, use as guide
1. CC(Nc1nc(N)nc(N)c1C#N)c1nc2c(Cl)ccc(Cl)c2c(=O)n1-c1ccccc1 (single isomer, unassigned) [Compound 50a]	> 9.00
2. CC(Nc1nc(N)nc(N)c1C#N)c1nc2cccc(S(C)(=O)=O)c2c(=O)n1-c1ccccc1 (single isomer, unassigned) [Compound 95a]	8.00 to 9.00
3. CC(Nc1nc(N)nc(N)c1C#N)c1nc2cccc(C(F)F)c2c(=O)n1-c1cc(F)cc(C(F)F)c1 (single isomer, unassigned) [Compound 99a]	8.00 to 9.00
4. CC(Nc1nc(N)nc(N)c1C#N)c1nc2cccc(S(C)(=O)=O)c2c(=O)n1-c1cccc(F)c1 (single isomer, unassigned) [Compound 117a]	8.00 to 9.00
5. CC(Nc1nc(N)nc(N)c1C#N)c1nc2c(F)ccc(C#N)c2c(=O)n1-c1cc(F)cc(F)c1 (single isomer, unassigned) [Compound 125a]	7.30 to 8.00

Documented pIC50 of CC(Nc1nc(N)nc(N)c1C#N)c1nc2ccc(F)c(Cl)c2c(=O)n1-c1cc(F)cc(C(F)F)c1 (single isomer, unassigned) [Compound 141a] : 7.30 to 8.00

Lab note: measured pIC50 of CC(Nc1nc(N)nc(N)c1C#N)c1nc2cccc(F)c2c(=O)n1-c1cc(F)cc(F)c1 (single isomer, unassigned) [Compound 10a] was 8.00 to 9.00

The recorded pIC50 for entry CC(Nc1nc(N)nc(N)c1C#N)c1nc2ccc(Cl)c(F)c2c(=O)n1-c1cc(F)cc(F)c1 (single isomer, unassigned) [Compound 85a] equals < 7.30

# pIC50 (compound: CC(C)c1cccc(-n2c(C(C)Nc3nc(N)nc(N)c3C#N)nc3cccc(Cl)c3c2=O)c1 (single isomer, unassigned) [Compound 107a] ) is 8.00 to 9.00

Entry COc1cccc2c(=O)n(-c3ccccc3)c(C(C)Nc3nc(N)nc(N)c3C#N)nc12 (single isomer, unassigned) [Compound 156a] — recorded pIC50 = < 7.30

# pIC50 (compound: COc1cc(-n2c(C(C)Nc3nc(N)nc(N)c3C#N)nc3cccc(Cl)c3c2=O)ccc1C (single isomer, unassigned) [Compound 184a] ) is 7.30 to 8.00

Noted for CC(Nc1nc(N)nc(N)c1C#N)c1nc2c(Cl)cccc2c(=O)n1-c1cc(F)cc(F)c1 (single isomer, unassigned) [Compound 71a] : its pIC50 reads 8.00 to 9.00
